Biological target: SIRT1 (Homo sapiens, UniProt Q96EB6)
Sequence (Q96EB6 whole entry): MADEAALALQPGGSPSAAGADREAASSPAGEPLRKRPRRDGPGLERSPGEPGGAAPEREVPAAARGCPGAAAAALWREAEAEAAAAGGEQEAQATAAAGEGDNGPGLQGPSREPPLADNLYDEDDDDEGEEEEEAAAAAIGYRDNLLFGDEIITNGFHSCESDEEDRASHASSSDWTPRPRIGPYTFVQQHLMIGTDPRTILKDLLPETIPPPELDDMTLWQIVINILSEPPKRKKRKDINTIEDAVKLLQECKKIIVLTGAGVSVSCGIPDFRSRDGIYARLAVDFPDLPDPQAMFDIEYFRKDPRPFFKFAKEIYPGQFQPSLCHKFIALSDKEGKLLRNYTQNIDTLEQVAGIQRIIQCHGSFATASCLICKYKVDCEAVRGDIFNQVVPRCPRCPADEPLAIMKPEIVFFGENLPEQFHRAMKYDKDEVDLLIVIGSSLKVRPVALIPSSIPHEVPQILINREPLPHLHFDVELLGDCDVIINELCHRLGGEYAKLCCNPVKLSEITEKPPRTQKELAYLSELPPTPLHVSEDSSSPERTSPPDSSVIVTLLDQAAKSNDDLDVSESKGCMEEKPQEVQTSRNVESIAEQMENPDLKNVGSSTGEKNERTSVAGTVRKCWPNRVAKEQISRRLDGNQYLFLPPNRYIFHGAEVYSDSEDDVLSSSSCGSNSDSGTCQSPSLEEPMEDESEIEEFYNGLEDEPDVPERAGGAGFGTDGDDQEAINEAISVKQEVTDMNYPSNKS
Assay: Trp mass spectrometry assay of SIRT1 deacetylase activation
Format: biochemical
Conditions: concentration that results in 150% activation of SIRT1; Trp peptide substrate
metric: TRP EC1.5 (μM)

Here are 4 molecules together with their reported answers.
[[record]]
compoundstructurestring = "O=C(Nc1ccncn1)c1ccnc2cc(-c3ccccc3C(F)(F)F)nn12"
assayvalue = "B (EC1.5 1−25 μM)"

[[record]]
compoundstructurestring = "O=C(Nc1ccnc2cc(-c3ccccc3C(F)(F)F)nn12)c1ccccn1"
assayvalue = "B (EC1.5 1−25 μM)"

[[record]]
compoundstructurestring = "O=C(Nc1cccnc1)c1ccnc2cc(-c3ccccc3C(F)(F)F)nn12"
assayvalue = "B (EC1.5 1−25 μM)"

[[record]]
compoundstructurestring = "O=C(Nc1ccccn1)c1cc(N2CCOCC2)nn2cc(-c3cccc(Cl)c3)nc12"
assayvalue = "C (EC1.5>25 μM)"


--- query ---
Exam item: Indicate its recorded TRP EC1.5 (μM); the molecule in question is `O=C(Nc1ccncc1)c1cc(N2CCOCC2)nn2cc(-c3ccccc3C(F)(F)F)nc12`
Marked response: C (EC1.5>25 μM)
